Source listed as ChEMBL document CHEMBL4513216.

tested on: Plasmodium berghei; experiment: Screen against P. berghei liver stage (PbLuc), transformed with Luciferase, at 10uM; type: functional, HepG2; conditions: tested at 10 uM
Hit rate of the full screen: of about 69,000 compounds, about 8,600 (12%) showed an effect of 50% or more. The entries come from a sample that favours strong results as a whole.
Parameter INHIBITION: see the listing below.
Give the value in % but do not write % after it.

Recorded INHIBITION, per entry:
Compound: Cc1ccc(CNc2cc(N3CCCC3CO)ncn2)s1 (configuration not stated)
Assay System: Plasmodium berghei
INHIBITION, %: -23.9
--
Compound: Cc1nc(CN2CCC3(CCCN(C(=O)c4cnccn4)C3)C2)cs1 (configuration not stated)
Assay System: Plasmodium berghei
INHIBITION, %: -2.46
--
Compound: Cc1cc(C)cc(NC(=O)N(CCC#N)CCCN(C)C)c1
Assay System: Plasmodium berghei
INHIBITION, %: 52.6
--
Compound: Cc1cc(NC(=O)N(CCC#N)CCCN(C)C)ccc1F
Assay System: Plasmodium berghei
INHIBITION, %: 52.6

Query :: Entry under review: CN1CCC(Nc2cc(Cl)ccc2OCC(F)(F)F)C1=O (configuration not stated) . Reported INHIBITION?
Result :: 4.34

Query :: Entry under review: CCNC(=O)[C@@H]1CCCN1C(=O)c1cccc(CCC(C)(C)O)c1 . Reported INHIBITION?
Result :: -26.8

* * *

Parameter INHIBITION: see the listing below.
tested on: Plasmodium berghei; assay: Screen against P. berghei liver stage (PbLuc), transformed with Luciferase, at 10uM; assay type: functional, HepG2; conditions: tested at 10 uM
Hit rate of the full screen: of about 69,000 compounds, about 8,600 (12%) showed an effect of 50% or more. For the sample, strong results were picked, then their nearest neighbours and some compounds at random.
Give the value in % but do not write % after it.

Recorded INHIBITION, per entry:
Compound: CC(NCc1cccc(Cl)c1)c1ccc(OCC(=O)NC2CC2)cc1 (centres undefined)
INHIBITION, %: 13.3
--
Compound: CCN(CC)c1nc2sc(C(=O)N3CCNC(=O)C3)cc2s1
INHIBITION, %: -81.7
--
Compound: CC(Cn1cccn1)C(=O)N1CCCN(Cc2cscn2)CC1 (centres undefined)
INHIBITION, %: -0.29

# ---- query compound ----
Query :: Entry under review: Cc1ccc(NC2CCN(C(=O)c3cc4c(s3)CCC4)CC2)nn1 . Reported INHIBITION?
Result :: -11.4

* * *

system: Plasmodium berghei; assay: Screen against P. berghei liver stage (PbLuc), transformed with Luciferase, at 10uM; format: functional, HepG2; conditions: tested at 10 uM
Screen size: about 69,000 compounds; about 8,600 (12%) showed an effect of 50% or more. This is one part of a sample in which strong results are shown more often than they occur.
Label y when INHIBITION >= 40%; otherwise n.

Observe how each entry below is paired with its result.
Compound: CC(C)c1nnc(NC(=O)NC2CCN(Cc3ccccc3)C2)s1 (configuration not stated)
Assay System: Plasmodium berghei
Class Assignment: n
//
Compound: O=C(O)c1cc2c(nc1-c1ccoc1)CCN(Cc1ccco1)CC2
Assay System: Plasmodium berghei
Class Assignment: n
//
Compound: CNc1nc(C(=O)N2CCCC(CO)(CCCOC)C2)cs1 (configuration not stated)
Assay System: Plasmodium berghei
Class Assignment: y
//
Compound: CC(=O)NC1CCCN(C(=O)Nc2nnc(C(C)C)s2)C1 (configuration not stated)
Assay System: Plasmodium berghei
Class Assignment: y

Query :: I'd appreciate it if you could say whether Cc1nn(C2CCS(=O)(=O)C2)c(O)c1Cc1ccc(Br)cc1 (configuration not stated) has INHIBITION at least equal to 40%.
Result :: y

Query :: I'd appreciate it if you could say whether COc1cc(CNCC2CN(C3CC3)CCO2)cc(OC)c1 (configuration not stated) has INHIBITION at least equal to 40%.
Result :: n

Query :: I'd appreciate it if you could say whether c1cncc(CN2CCC(c3csc4nccn34)CC2)c1 has INHIBITION at least equal to 40%.
Result :: n

Query :: I'd appreciate it if you could say whether COCc1nc(C(=O)N2CCCC2c2ccc(OC)cc2)cs1 (configuration not stated) has INHIBITION at least equal to 40%.
Result :: y

Query :: I'd appreciate it if you could say whether Nc1cccc(C2CN(C(=O)CN3CCOCC3)CCO2)n1 (configuration not stated) has INHIBITION at least equal to 40%.
Result :: n

Query :: I'd appreciate it if you could say whether CCc1c(C(=O)N2CCC(CC(N)=O)CC2)cnn1C(C)(C)C has INHIBITION at least equal to 40%.
Result :: y

Query :: I'd appreciate it if you could say whether CC(C)N1CCc2ncn(C(C)C)c2C1C(=O)NCCN1CCCC1 (configuration not stated) has INHIBITION at least equal to 40%.
Result :: n

Query :: I'd appreciate it if you could say whether CN1CCN(C(=O)c2cnc3c(cnn3C3CCCC3)c2)CC1 has INHIBITION at least equal to 40%.
Result :: n

Query :: I'd appreciate it if you could say whether CCN(CC1CCCO1)C(=O)Nc1cc(C(N)=O)ccc1OC (configuration not stated) has INHIBITION at least equal to 40%.
Result :: n

Query :: I'd appreciate it if you could say whether CC(C)N1CCc2ncn(C)c2C1C(=O)NCCN1CCCC1 (configuration not stated) has INHIBITION at least equal to 40%.
Result :: y

Query :: I'd appreciate it if you could say whether CCN1CCN(CC(=O)N2CCOC(Cc3ccc(OC)cc3)C2)CC1 (configuration not stated) has INHIBITION at least equal to 40%.
Result :: n

Query :: I'd appreciate it if you could say whether O=C(C1CCOCC1)N1CCOCC(Cc2ncccn2)C1 (configuration not stated) has INHIBITION at least equal to 40%.
Result :: n

Query :: I'd appreciate it if you could say whether COC(=O)CNC(=O)c1scnc1C has INHIBITION at least equal to 40%.
Result :: n

Query :: I'd appreciate it if you could say whether CNC(=O)CCC(=O)N1CCOC(c2ccc3cc(OC)ccc3c2)C1 (configuration not stated) has INHIBITION at least equal to 40%.
Result :: y

Query :: I'd appreciate it if you could say whether OCCN1CCC(Cc2nccs2)CC1 has INHIBITION at least equal to 40%.
Result :: n

Query :: I'd appreciate it if you could say whether CCCC1(CO)CCCN(Cc2ncccn2)C1 (configuration not stated) has INHIBITION at least equal to 40%.
Result :: n

Query :: I'd appreciate it if you could say whether O=C1[C@@H]2CC[C@@H](CN(Cc3nnc(C4CC4)o3)C2)N1Cc1cscn1 has INHIBITION at least equal to 40%.
Result :: n

Query :: I'd appreciate it if you could say whether CCn1ccnc1CN1CCN(CCc2ccncc2)CC1C (configuration not stated) has INHIBITION at least equal to 40%.
Result :: n

Query :: I'd appreciate it if you could say whether NC(=O)C1CCCN(C(=O)c2cnc3c(cnn3C3CCCC3)c2)C1 (configuration not stated) has INHIBITION at least equal to 40%.
Result :: y

Query :: I'd appreciate it if you could say whether COCCC1(CO)CCCN(C(=O)c2cc(Cl)ccc2F)C1 (configuration not stated) has INHIBITION at least equal to 40%.
Result :: n

Query :: I'd appreciate it if you could say whether COCCC1(CO)CCCN(C(=O)c2cccnc2O)C1 (configuration not stated) has INHIBITION at least equal to 40%.
Result :: y

Query :: I'd appreciate it if you could say whether Cn1cc(CN2CCc3onc(C(=O)N4CCCC4)c3C2)cn1 has INHIBITION at least equal to 40%.
Result :: n

Query :: I'd appreciate it if you could say whether COCCC1(CO)CCCN(C(=O)c2cccnc2OC)C1 (configuration not stated) has INHIBITION at least equal to 40%.
Result :: y
